test system: DLD-1; assay: cells; assay type: cell-based; details: Homo sapiens, DLD-1, basal; DLD-1; read-out: Basal_Viability ATP DLD-1
The label is 1 for IC50 below 20 nM and 0 for IC50 equal to or exceeding 20 nM.

# example entries with known answers
Molecule	Category
O=C(Nc1ccc(Br)cc1)c1cc(Br)cc(Br)c1O [Tribromsalan]	1
CN(Cc1cnc2nc(N)nc(N)c2n1)c1ccc(C(=O)N[C@@H](CCC(=O)O)C(=O)O)cc1 [methotrexate, reference compound]	0
O=C1C(I)=CC(=C(c2cc(I)c(O)c(I)c2)c2ccccc2C(=O)O)C=C1I [Iodotetragnost]	1
C[C@@H]1C[C@H]2[C@@H]3CCC4=CC(=O)C=C[C@]4(C)[C@@]3(Cl)[C@@H](O)C[C@]2(C)[C@@]1(OC(=O)c1ccco1)C(=O)CCl [Mometasone furoate]	0

Turning to the following molecule.
Take the molecule COC(=O)Nc1nc2ccc(C(=O)C3CC3)cc2[nH]1 [Ciclobendazole] and say whether its IC50 is less than 20 nM.
0

###

tested on: HT-29; assay: cells; assay type: cell-based; conditions: assay number 28
Readout name: Basal_Viability ATP HT-29 IC50/EC50

# count of solved cases: 2
Compound	Basal_Viability ATP HT-29 IC50/EC50
Clc1ccc(C(Cn2ccnc2)OCc2ccc(Sc3ccccc3)cc2)c(Cl)c1 (stereo not drawn) [NCGC00253713-01]	> 20 µM
CC(C)NCC(O)COc1ccc(CCOCC2CC2)cc1 (stereo not drawn) [NCGC00015159-11]	> 20 µM

Here is another compound to look at.
Name the recorded Basal_Viability ATP HT-29 IC50/EC50 of the compound listed here: CC(C)(C)NCC(O)c1cc(O)cc(O)c1.CC(C)(C)NCC(O)c1cc(O)cc(O)c1.O=S(=O)(O)O (stereo not drawn) [NCGC00016010-09]
> 20 µM

###

// Hela CellCycMod PI 4N IC50/EC50 lookup, one value per entry
system: HeLa cells; experiment: cells; assay type: cell-based; conditions: assay number 16; 4N

# count of solved cases: 5
Compound	Recorded result
CC(C)C[C@H](NC(=O)[C@H](CCc1ccccc1)NC(=O)CN1CCOCC1)C(=O)N[C@@H](Cc1ccccc1)C(=O)N[C@@H](CC(C)C)C(=O)[C@@]1(C)CO1 [NCGC00249613-02]	> 10 µM
O=C1c2c(O)ccc(O)c2C(=O)c2c(NCCNCCO)ccc(NCCNCCO)c21 [NCGC00015693-09]	> 10 µM
COc1cccc2c1C(=O)c1c(O)c3c(c(O)c1C2=O)C[C@@](O)(C(=O)CO)C[C@@H]3O[C@H]1C[C@H](N)[C@H](O[C@@H]2CCCCO2)[C@H](C)O1 [NCGC00344543-01]	0.08063 µM
CCCOc1ccc2nc(NC(=O)OC)[nH]c2c1 [NCGC00018238-09]	0.0567 µM
C[C@@]12C(=O)OC(=O)[C@]1(C)C1CCC2O1 [NCGC00025212-08]	> 10 µM

Name the recorded Hela CellCycMod PI 4N IC50/EC50 of the compound listed here: CCCCCCCCCCOCC(O)CN (stereo not shown) [NCGC00166070-02]
> 10 µM

Name the recorded Hela CellCycMod PI 4N IC50/EC50 of the compound listed here: Cl.O=C1[C@H]2CCCC[C@H]2C(=O)N1CCCCN1CCN(c2nsc3ccccc23)CC1 [NCGC00164567-02]
> 10 µM

Name the recorded Hela CellCycMod PI 4N IC50/EC50 of the compound listed here: COc1cccc2c1C(=O)c1c(O)c3c(c(O)c1C2=O)C[C@@](O)(C(C)=O)C[C@@H]3O[C@H]1C[C@H](N)[C@H](O)[C@H](C)O1 [NCGC00024246-15]
0.04645 µM

Name the recorded Hela CellCycMod PI 4N IC50/EC50 of the compound listed here: O=C1C(=O)c2ccccc2C(O)=C1C1CCC(c2ccc(Cl)cc2)CC1 (stereo not shown) [NCGC00016961-06]
> 10 µM

Name the recorded Hela CellCycMod PI 4N IC50/EC50 of the compound listed here: Cl.O[C@@H](CNC[C@H](O)[C@H]1CCc2cc(F)ccc2O1)[C@@H]1CCc2cc(F)ccc2O1 [NCGC00263579-01]
> 10 µM

Name the recorded Hela CellCycMod PI 4N IC50/EC50 of the compound listed here: Cc1ccc(S(=O)(=O)NC(=O)NN2CC3CCCC3C2)cc1 (stereo not shown) [NCGC00095107-09]
> 10 µM

Name the recorded Hela CellCycMod PI 4N IC50/EC50 of the compound listed here: Cc1cc(O)c2ccccc2c1O [NCGC00253592-01]
> 10 µM

Name the recorded Hela CellCycMod PI 4N IC50/EC50 of the compound listed here: Cc1ccc(Nc2nccc(N(C)c3ccc4c(C)n(C)nc4c3)n2)cc1S(N)(=O)=O [NCGC00188865-03]
> 10 µM
